test system: human Factor XI mRNA; experiment: Dose-dependent inhibition in HepG2 cells, lipofectin (Example 4); format: cell-based; settings: 75 nM, 16 hours
In the oligonucleotide strings, read from the 5' end, every base follows the letter of its sugar. An asterisk marks phosphorothioate; unmarked linkages are phosphodiester. Other units and linkages are bracketed, terminal groups are in braces. A string of capitals states the bases alone. e = 2'-O-(2-methoxyethyl) (MOE); [5mC] = 5-methylcytosine; d = 2'-deoxy (DNA)
parameter: percent inhibition of Factor XI mRNA, relative to untreated control cells
Dear colleague, please send the value followed by its unit.

Enquiry: What value of percent inhibition of Factor XI mRNA, relative to untreated control cells has been recorded for this entry: 416926 (antisense eT*eG*eG*dT*dG*d[5mC]*dA*d[5mC]*dA*dG*dT*dT*dT*d[5mC]*dT*dG*dG*e[5mC]*eA*eG) [compound 416926]
Return: 82%

Enquiry: Repeat for the following substance: 416842 (antisense eT*eG*eA*eG*eA*dT*dT*d[5mC]*dT*dT*dT*dG*dG*dG*d[5mC]*e[5mC]*eA*eT*eT*e[5mC]) [compound 416842]
Return: 71%

Enquiry: // repeat for 416924 (antisense eG*eT*eG*d[5mC]*dA*d[5mC]*dA*dG*dT*dT*dT*d[5mC]*dT*dG*dG*d[5mC]*dA*eG*eG*e[5mC]) [compound 416924] and report
Return: 59%

Source of measurements: patent US20120083522A1
